assay.target: Glutamate receptor ionotropic, AMPA (Rattus norvegicus, UniProt P19490+P19491+P19492+P19493)
assay.method.text: Inhibition of kainate-induced currents of rat ionotropic glutamate receptor AMPA expressed in Xenopus laevis oocytes
Doc: threshold 300 nM (exclusive). Items with IC50 beneath it return condition met; others return condition not met.

compound	assigned.label
CCCC(=O)N1CCC(C(=O)NCCCNCCCCNCCCN)(c2ccccc2)CC1	condition not met
CCCC(=O)N[C@@H](Cc1ccccc1)C(=O)NCCCNCCCCNCCCN	condition not met
CCCC(=O)N[C@@H](Cc1ccc(O)cc1)C(=O)NCCCNCCCCNCCCN	condition met
CCCC(=O)N1Cc2ccccc2C[C@H]1C(=O)NCCCNCCCCNCCCN	condition not met
CCCC(=O)N1Cc2ccc(O)cc2CC1C(=O)NCCCNCCCCNCCCN (configuration not stated)	condition met

For CCCC(=O)N[C@@H](CCc1ccccc1)C(=O)NCCCNCCCCNCCCN , is the recorded IC50 below the cut-off of 300 nM?
condition met

For CCCC(=O)NC1(C(=O)NCCCNCCCCNCCCN)Cc2ccccc2C1 , is the recorded IC50 below the cut-off of 300 nM?
condition met

For CCCC(=O)N[C@H](C(=O)NCCCNCCCCNCCCN)c1ccccc1 , is the recorded IC50 below the cut-off of 300 nM?
condition not met

For CCCC(=O)N1C[C@@H](Oc2ccc3ccccc3c2)C[C@H]1C(=O)NCCCNCCCCNCCCN , is the recorded IC50 below the cut-off of 300 nM?
condition not met

For CCCC(=O)N1C[C@H](OCc2ccccc2)C[C@H]1C(=O)NCCCNCCCCNCCCN , is the recorded IC50 below the cut-off of 300 nM?
condition met

For CCCC(=O)N1c2ccccc2CC1C(=O)NCCCNCCCCNCCCN (configuration not stated) , is the recorded IC50 below the cut-off of 300 nM?
condition not met

For CCCC(=O)N[C@@H](Cc1ccc2ccccc2c1)C(=O)NCCCNCCCCNCCCN , is the recorded IC50 below the cut-off of 300 nM?
condition met

For CCCC(=O)NC1(C(=O)NCCCNCCCCNCCCN)CCc2ccccc2C1 (configuration not stated) , is the recorded IC50 below the cut-off of 300 nM?
condition met

For CCCC(=O)N[C@H](Cc1ccc(O)cc1)C(=O)NCCCNCCCCNCCCN , is the recorded IC50 below the cut-off of 300 nM?
condition met

For CCCC(=O)N[C@@H](Cc1ccc(-c2ccccc2)cc1)C(=O)NCCCNCCCCNCCCN , is the recorded IC50 below the cut-off of 300 nM?
condition met
